Data credit: patent US6277859A

test system: ddY mice; assay: animal or person; assay type: in vivo, mouse (ddY); conditions: mouse, s.c. 15 min before i.p. 0.6% acetic acid
# key: entry, value: ED50, acetic acid writhing
Field: numeric (µg/kg). Do not append units.

Below, 2 molecules whose answers are already recorded.
CN(C(=O)/C=C/c1cccc(F)c1)[C@H]1CC[C@@]2(O)[C@H]3Cc4ccc(O)c5c4[C@@]2(CCN3CC2CC2)[C@H]1O5 = 0.86
CN(C(=O)CC(=O)c1ccccc1)[C@H]1CC[C@@]2(O)[C@H]3Cc4ccc(O)c5c4[C@@]2(CCN3CC2CC2)[C@H]1O5 = 6.8

Turning now to a further record.
Tested system ddY mice; ED50, acetic acid writhing recorded for CN(C(=O)/C=C/c1ccccc1)[C@@H]1CC[C@@]2(O)[C@H]3Cc4ccc(O)c5c4[C@@]2(CCN3CC2CC2)[C@H]1O5 was 1.8
